target: human thyroid receptor alpha ligand-binding domain (THR-α) (Homo sapiens); assay: TR-FRET thyroid receptor coactivator assay (THR biochemical assay), alpha
Sequence (P10827 163-410 isoform P10827-2 limits assumed, other chains not shown): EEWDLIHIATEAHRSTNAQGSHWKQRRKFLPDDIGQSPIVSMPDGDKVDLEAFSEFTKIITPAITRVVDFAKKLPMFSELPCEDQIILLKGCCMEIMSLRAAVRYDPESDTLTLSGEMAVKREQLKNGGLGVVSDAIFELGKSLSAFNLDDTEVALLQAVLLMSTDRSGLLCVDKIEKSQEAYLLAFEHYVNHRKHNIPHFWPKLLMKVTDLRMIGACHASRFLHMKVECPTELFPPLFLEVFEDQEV
PARAMETER MEASURED: EC50 (µM)
Record the value in µM, omitting the unit from your answer.

Retrieve EC50 measured for CC(c1cc(Oc2c(Cl)cc(-n3nc(N)c(=O)[nH]c3=O)cc2Cl)n[nH]c1=O)C1CC1 (single isomer, unassigned) and print it.
0.252

----------
test: Microsomal stability assay, human; assay type: in vitro ADME; details: liver microsomes, pH 7.4, 0.5 mg/mL microsomes, read-out: Liver Microsomes T1/2
PARAMETER MEASURED: half-life at 1 μM

Specify half-life at 1 μM for CC(c1cc(Oc2c(Cl)cc(-n3nc(N)c(=O)[nH]c3=O)cc2Cl)n[nH]c1=O)C1CC1 (single isomer, unassigned) and stop.
> 1 h

Moving on to the next compound.
Query half-life at 1 μM for C#Cc1nn(-c2cc(Cl)c(Oc3cc(C(C)C)c(=O)[nH]n3)c(Cl)c2)c(=O)[nH]c1=O [Compound 2, reference compound]
> 1 h

----------
test: Pharmacokinetics in rat (i.v.); format: in vivo, Male Sprague-Dawley rats; conditions: male, Sprague-Dawley, plasma, iv 1 mg/kg, 12 h, read-out: Plasma conc. 12 h
PARAMETER MEASURED: concentration at 12 h (ng/mL)
# output: bare number, implied unit ng/mL

Identify concentration at 12 h associated with the compound CC(c1cc(Oc2c(Cl)cc(-n3nc(N)c(=O)[nH]c3=O)cc2Cl)n[nH]c1=O)C1CC1 (single isomer, unassigned) [Compound 1a]
336

----------
Listing of recorded half-life at 1 μM by entry.
assay: Microsomal stability assay, mouse; assay type: in vitro ADME; conditions: liver microsomes, pH 7.4, 0.5 mg/mL microsomes, read-out: Liver Microsomes T1/2

Specify half-life at 1 μM for C#Cc1nn(-c2cc(Cl)c(Oc3cc(C(C)C)c(=O)[nH]n3)c(Cl)c2)c(=O)[nH]c1=O [Compound 2, reference compound] and stop.
> 1 h

New cases:
Provide one value: measured half-life at 1 μM of CC(c1cc(Oc2c(Cl)cc(-n3nc(N)c(=O)[nH]c3=O)cc2Cl)n[nH]c1=O)C1CC1 (single isomer, unassigned) [Compound 1a]
> 1 h

----------
assay: Pharmacokinetics in rat (i.v.); assay type: in vivo, Male Sprague-Dawley rats; details: male, Sprague-Dawley, liver, iv 1 mg/kg, 12 h, read-out: Liver conc. 12 h
PARAMETER MEASURED: concentration at 12 h (ng/g)
// return numeric value only (unit: ng/g, not printed)

Look up and report measured concentration at 12 h for this entry: CC(c1cc(Oc2c(Cl)cc(-n3nc(N)c(=O)[nH]c3=O)cc2Cl)n[nH]c1=O)C1CC1 (single isomer, unassigned)
14400

----------
experiment: Hepatocyte stability assay, human; type: in vitro ADME; details: cryopreserved hepatocytes, 0.5 million cells/mL, read-out: Hepatocytes T1/2
PARAMETER MEASURED: half-life at 1 μM (min)
Your answer is read as min, so omit the unit and give the number.

Input C#Cc1nn(-c2cc(Cl)c(Oc3cc(C(C)C)c(=O)[nH]n3)c(Cl)c2)c(=O)[nH]c1=O [Compound 2, reference compound] , output reported half-life at 1 μM.
103

----------
assay: Hepatocyte stability assay, mouse; format: in vitro ADME; details: cryopreserved hepatocytes, 0.5 million cells/mL, read-out: Hepatocytes T1/2
PARAMETER MEASURED: half-life at 1 μM (h)
# value in h; strip the unit string

For the compound C#Cc1nn(-c2cc(Cl)c(Oc3cc(C(C)C)c(=O)[nH]n3)c(Cl)c2)c(=O)[nH]c1=O [Compound 2, reference compound] , report half-life at 1 μM.
1.18
